Could you please report measured protein stability index for the items listed next?
B1: RTN1 (parent)
chain: VVAYLALAALSATISFRIYKSVLQ

- Variants of: B1
- run.description: protein stability index of a GFP-peptide fusion (GPS, HEK-293T) (PSI 1-6); higher = more stable;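 note: lentivirally expressed fusions sorted by FACS into six bins by GFP to DsRed ratio, PSI derived from sequencing read proportions per bin multiplied by bin number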
- condition.summary: c terminus: a fixed tail appended

Consider the reported protein stability index for these variants:
> print(dat)
           monomer.sequence              metric.name  test.result
1  VVAYLALAALSATISFREYKSVLQ  protein stability index         3.04
2  VVAYLALAALSATISFRIYKKVLQ  protein stability index         1.45
3  VVARLALAALSATISFRIYKSVLQ  protein stability index            3
4  VVAYLALAALSATISFRIYKSVMQ  protein stability index         3.52
5  VVAYLALAALSATHSFRIYKSVLQ  protein stability index         2.72

Batch lookup, protein stability index per entry.
1. VVMYLALAALSATISFRIYKSVLQ
2. VVAYLALAALRATISFRIYKSVLQ

[2.6, 2.44]

Reference for the values: the supplement of paper PMC10567573
